Items are presented alongside their recorded TGI.
System: CAKI-1 renal
measurement_protocol: NCI tumour cell line growth inhibition, 48 h
quantity_measured: TGI

- O=C1CCC(C(=O)O)C2=C1CCCC2 (stereo not given): > 100 µM
- CC(O)(CCCCCl)c1nc2ccccc2s1 (stereo not given): > 100 µM
- Cn1c(=O)c2c(ncn2Cc2ccc(O)c([N+](=O)[O-])c2)n(C)c1=O: > 100 µM
- CC(C)(C)OC(=O)NCCCCCCC(=O)Cc1ccccc1: > 100 µM
- O=C(/C=C/c1cccc([N+](=O)[O-])c1)c1cccnc1: > 90.8 µM
- CO/C(N)=C(\C#N)N=Cc1cccnc1: > 100 µM
- CC(=NCC(=O)O)c1ccccc1: > 100 µM
- Cc1cccc(NC2=C(Cl)C(=O)N(Cc3ccc(Cl)cc3)C2=O)c1: 24.6 µM
- CCCCCCCCCCCC[C@H](O)[C@H]1CC[C@H]([C@H](O)CCCC[C@H](O)CCCCC[C@@H](O)CC2=C[C@H](C)OC2=O)O1: 36.4 µM
- COC(=O)c1c2c(c3[nH]c4ccccc4c3c1C(=O)OC)C(=O)C1=C(C2=O)C2(Cl)C(Cl)C(Cl)C1(Cl)C2(Cl)Cl (stereo not given): 9.19 µM
- O=C(O)COc1cc(-c2ccccc2)nc2ccc(F)cc12: > 100 µM
- Cn1c2ccccc2c2ccc3c(c21)C(=O)C=CC3=O: 11.8 µM
- CC(C)=NNc1ncnc2c1ncn2C1OC(CO)C(O)C1O (stereo not given): 17.1 µM
- N.N.NCCCCCCN.O=C([O-])CCl.O=C([O-])CCl.O=C([O-])CCl.O=C([O-])CCl.[Pt+4].[Pt+4]: > 50 µM
- O=[N+]([O-])c1ccc(N=Nc2c(O)[nH]c3ccc(Br)cc23)cc1: > 58.4 µM
- COC(=O)[C@]12CC[C@H]3CN(C(=O)OCc4ccccc4)[C@H]([C@H]31)[C@H](C(=O)OCC[Si](C)(C)C)N2S(=O)(=O)c1ccc(C)cc1: > 100 µM
- COc1ccc(NC(=S)N/N=C/c2c(C)n(C)n(-c3ccccc3)c2=O)cc1: 51.8 µM
- CC(C)(C)OC(=O)NCC(c1c[nH]c2ccc(Br)cc12)c1c[nH]c2ccc(Br)cc12: 24.5 µM
- O=c1n(-c2ccccc2)c(=O)n2n1C1C=CC2CCCCCC1: > 100 µM
- COc1cc2c(cc1OCCCCCN1CCN(c3cc(=O)oc4ccccc34)CC1)N=C[C@@H]1CCCN1C2=O: 1.86 µM
- CCC(=C/[C@H](C)C/C=C/C(C)=C/[C@@H](C)C(=O)[C@@H](C)[C@H](O)[C@@H](C)CC)/C=C/[C@@H]1OC(=O)C=C[C@@H]1C: 8.53 µM
- COC(=O)C1=C(c2cc(OC)c(OC)c(OC)c2)OC(c2ccc3c(c2)OCO3)C1 (stereo not given): > 100 µM
- CC1=C[C@H](O)[C@@]2(C)[C@@H]([C@@H]1C)[C@H]1CC[C@@H]3[C@@]4(C)CC[C@H](O)C(C)(C)[C@@H]4CC[C@@]3(C)[C@]1(C)C[C@@H]2O: 36.6 µM
- COC(=O)c1ccc(NC(=O)c2cc3c(cc2Br)OCO3)o1: > 100 µM
- CCc1nc(N)nc(N)c1-c1ccc(Cc2ccccc2)c([N+](=O)[O-])c1: > 100 µM
- CCn1cc(C(=O)N/N=C/c2ccc(Br)cc2)c(=O)c2cc(F)c(N3CCNC(C)C3)c(F)c21 (stereo not given): 3.08 µM
- CC1SC(c2ccc(Cl)c(Cl)c2)N(NC(=O)C(O)c2ccccc2)C1=O (stereo not given): > 100 µM
- NC(=O)n1ncc(Cl)c(Cl)c1=O: > 100 µM
- Nc1c(C(=O)Nc2ccccn2)sc2nc3c(cc12)CCCCC3: > 50 µM
- CCNC(=S)NNC(=O)c1csc(NC(=S)NC2CCCCC2)n1: 31.1 µM
- C=C(C)C(CC=C(C)C)Cc1c(O)cc(OC)c2c1OC(c1ccc(O)cc1O)C(O)C2=O (stereo not given): 26.6 µM
- COc1cc(CCCl)c(CC2=NCCc3cc(OC)c(OC)cc32)cc1OC: > 100 µM
- CCOC(=O)c1c(-c2ccccc2)oc(=O)c(Cc2cccc3cccnc23)c1-c1ccccc1: > 10 µM
- C=CCN1C2Cc3cc(OC)c(OC)cc3C1Cc1cc(OC)c(OC)cc12: > 100 µM
- O=C1OC(CC(=O)c2ccccc2Cl)C(Cl)=C1Cl (stereo not given): > 100 µM
- COc1cc2oc(-c3ccc4c(c3)OCO4)c(OC)c(=O)c2c(OC)c1OC: > 100 µM
- CN(C)CCNC(=O)c1cc([N+](=O)[O-])cn1C: > 100 µM
- Cc1ccc(C)c(COc2cc(NC(=O)c3ccc4c(c3)OCO4)ccc2N(C)S(C)(=O)=O)c1: > 100 µM
- Oc1ccc(CCl)c2cccnc12: 53.3 µM
- COc1ccc(Cc2nc3cc([N+](=O)[O-])ccc3n2C[C@@H]2CCCN3CCCCC23)cc1 (stereo not given in full): 45.3 µM

Data origin: PubChem BioAssay (NCI)
